FYI, the data here is from patent US20260184794A1.

# assayTarget: T1, CHO-hu α11 (Homo sapiens, UniProt Q9UKX5)
# T1 construct: expressed in transfected cells; host or cells: CHO-K1
# T1 sequence (Q9UKX5 23-1188): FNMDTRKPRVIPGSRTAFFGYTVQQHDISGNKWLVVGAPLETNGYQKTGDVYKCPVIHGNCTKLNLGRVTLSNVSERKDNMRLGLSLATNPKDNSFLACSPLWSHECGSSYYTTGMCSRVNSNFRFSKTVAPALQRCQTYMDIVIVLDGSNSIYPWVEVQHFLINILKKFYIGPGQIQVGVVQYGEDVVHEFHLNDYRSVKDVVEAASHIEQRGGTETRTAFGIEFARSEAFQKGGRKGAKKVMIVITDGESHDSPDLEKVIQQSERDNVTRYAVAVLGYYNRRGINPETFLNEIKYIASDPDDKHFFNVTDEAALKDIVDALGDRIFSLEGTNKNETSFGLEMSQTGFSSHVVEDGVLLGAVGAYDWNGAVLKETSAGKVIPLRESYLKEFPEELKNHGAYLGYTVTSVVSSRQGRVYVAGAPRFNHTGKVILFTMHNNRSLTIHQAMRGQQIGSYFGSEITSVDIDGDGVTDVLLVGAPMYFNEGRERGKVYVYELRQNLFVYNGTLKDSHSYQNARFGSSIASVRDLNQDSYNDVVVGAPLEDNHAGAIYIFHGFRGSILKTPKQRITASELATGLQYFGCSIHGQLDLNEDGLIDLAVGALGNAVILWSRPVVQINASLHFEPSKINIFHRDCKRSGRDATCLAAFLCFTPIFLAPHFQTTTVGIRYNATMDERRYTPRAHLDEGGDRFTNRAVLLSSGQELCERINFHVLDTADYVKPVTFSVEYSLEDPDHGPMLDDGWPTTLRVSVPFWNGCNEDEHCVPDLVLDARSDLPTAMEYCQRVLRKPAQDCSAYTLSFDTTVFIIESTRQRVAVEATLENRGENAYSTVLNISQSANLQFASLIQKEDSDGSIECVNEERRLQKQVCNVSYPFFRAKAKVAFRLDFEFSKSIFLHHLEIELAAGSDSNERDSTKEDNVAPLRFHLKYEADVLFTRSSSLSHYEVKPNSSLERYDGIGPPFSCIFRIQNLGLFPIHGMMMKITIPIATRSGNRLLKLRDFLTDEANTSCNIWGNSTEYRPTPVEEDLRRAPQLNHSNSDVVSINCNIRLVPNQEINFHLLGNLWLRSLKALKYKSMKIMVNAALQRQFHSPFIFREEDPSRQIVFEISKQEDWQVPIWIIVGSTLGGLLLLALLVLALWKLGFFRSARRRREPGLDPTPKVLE
# T1 sequence (P05556 21-798 partner): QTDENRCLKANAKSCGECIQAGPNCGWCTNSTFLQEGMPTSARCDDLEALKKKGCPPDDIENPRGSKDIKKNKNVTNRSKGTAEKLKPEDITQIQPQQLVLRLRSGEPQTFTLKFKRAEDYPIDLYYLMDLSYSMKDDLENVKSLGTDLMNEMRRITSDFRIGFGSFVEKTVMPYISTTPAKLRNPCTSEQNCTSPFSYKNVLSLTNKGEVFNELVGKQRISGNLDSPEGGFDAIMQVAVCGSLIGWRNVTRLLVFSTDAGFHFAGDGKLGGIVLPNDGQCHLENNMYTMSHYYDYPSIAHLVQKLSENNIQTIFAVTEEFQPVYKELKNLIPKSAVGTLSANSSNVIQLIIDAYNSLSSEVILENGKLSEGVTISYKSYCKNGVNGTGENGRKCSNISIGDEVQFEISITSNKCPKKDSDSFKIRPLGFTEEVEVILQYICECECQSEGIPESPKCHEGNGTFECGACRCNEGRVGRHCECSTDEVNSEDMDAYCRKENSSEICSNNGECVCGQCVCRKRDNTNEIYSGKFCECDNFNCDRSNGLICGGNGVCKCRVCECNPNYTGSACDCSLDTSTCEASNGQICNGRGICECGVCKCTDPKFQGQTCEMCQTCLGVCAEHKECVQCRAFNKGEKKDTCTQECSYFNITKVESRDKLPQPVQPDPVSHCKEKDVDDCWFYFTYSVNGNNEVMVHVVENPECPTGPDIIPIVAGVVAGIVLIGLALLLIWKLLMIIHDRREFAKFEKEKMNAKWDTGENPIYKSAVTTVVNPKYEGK
# assayName: FACS antibody binding to CHO-K1 cells expressing human α11
# assayContext: Table 11, 1994-01-C7 variants, FIG. 4A
quantity: EC50 (nM)
One number for each entry, in nM.

molecule | EC50 [nM]
Antibody 60: 1994-01-C7 variant; VH SEQ ID NO: 33, VL SEQ ID NO: 37 (antibody, V domains shown) VH: QVQLVQSGAEVKKPGASVKVSCKASGYTFTSYGISWVRQAPGQGLEWMGWISAYNSNTNYAQKLQGRVTMTTDTSTSTAYMELRSLRSDDTAAYYCARVTGITGTTIGPWGQGTMVTVSS VL: DIQMTQSPSSLSASVGDRVTITCRASQSISSYLNWYQQKPGKAPKLLIYDASSLESGVPSRFSGSGSGTEFTLTISSLQPDDFAVYYCQQYNNWPQTFGQGTKVEIK | 5.3
1994-01-C7 (#9): anti-α11β1 monoclonal antibody from human phage display; VH SEQ ID NO: 32, VL SEQ ID NO: 37 (antibody, V domains shown) VH: QVQLVQSGAEVKKPGASVKVSCKASGYTFTSYGISWVRQAPGQGLEWMGWISAYNGNTNYAQKLQGRVTMTTDTSTSTAYMELRSLRSDDTAAYYCARVTGITGTTIDPWGQGTMVTVSS VL: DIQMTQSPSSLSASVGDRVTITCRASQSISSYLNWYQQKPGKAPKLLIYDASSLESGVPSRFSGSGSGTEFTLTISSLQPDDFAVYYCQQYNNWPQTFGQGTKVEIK | 3

Give EC50 for each of the items listed below.
1. Antibody 54: 1994-01-C7 variant; VH SEQ ID NO: 30, VL SEQ ID NO: 37 (antibody, V domains shown) VH: QVQLVQSGAEVKKPGASVKVSCKASGYTFTSYGISWVRQAPGQGLEWMGWISAYNANTNYAQKLQGRVTMTTDTSTSTAYMELRSLRSDDTAAYYCARVTGITGTTIGPWGQGTMVTVSS VL: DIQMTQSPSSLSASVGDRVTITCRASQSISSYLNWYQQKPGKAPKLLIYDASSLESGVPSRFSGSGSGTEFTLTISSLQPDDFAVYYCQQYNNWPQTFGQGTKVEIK
2. Antibody 58: 1994-01-C7 variant; VH SEQ ID NO: 31, VL SEQ ID NO: 37 (antibody, V domains shown) VH: QVQLVQSGAEVKKPGASVKVSCKASGYTFTSYGISWVRQAPGQGLEWMGWISAYNANVNYAQKLQGRVTMTTDTSTSTAYMELRSLRSDDTAAYYCARVTGITGTTIGPWGQGTMVTVSS VL: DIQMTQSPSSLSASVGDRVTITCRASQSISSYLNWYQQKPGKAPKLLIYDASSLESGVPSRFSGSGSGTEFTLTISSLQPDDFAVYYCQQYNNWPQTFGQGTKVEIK

[out]
5.5
5.94
